System: 134 cancer cell lines
Experiment: Cell viability assay (ATPlite, 72 hours), IC50 on cancer cell line panel
Conditions: Homo sapiens, SW780, read-out: IC50 in cell proliferation assay, cell line SW780 (FGFR3-BAIAP2L1)
Exercise: state measured pIC50 for each of the molecules provided.
// scale note: pIC50 = -log10(conc_M); give the bare number

Problem: Determine its reported pIC50: COc1cc2ncnc(Nc3ccc(F)c(Cl)c3)c2cc1NC(=O)/C=C/CN1CCCCC1
Solution: 5.34

Problem: Look up pIC50 of CCN1CCN(c2ccc(Nc3cc(N(C)C(=O)Nc4c(Cl)c(OC)cc(OC)c4Cl)ncn3)cc2)CC1 and report it.
Solution: 7.41

Problem: Return reported pIC50. Input molecule: Cn1cnc2c(F)c(Nc3ccc(Br)cc3F)c(C(=O)NOCCO)cc21
Solution: 6.57

Problem: Look up and report measured pIC50 for this entry: CCc1nc(C(N)=O)c(Nc2ccc(N3CCC(N4CCN(C)CC4)CC3)c(OC)c2)nc1NC1CCOCC1
Solution: 6.32

Problem: Respond only with pIC50 recorded for FC(F)(F)c1ccc(CNc2ccc(Cc3c[nH]c4ncc(Cl)cc34)cn2)cn1
Solution: 5.30

Problem: Provide pIC50 value for the following molecule: Cc1nc(NC(=O)N2CCC[C@H]2C(N)=O)sc1-c1ccnc(C(C)(C)C(F)(F)F)c1
Solution: 5.01

* * *

System: 134 cancer cell lines
Assay: Cell viability assay (ATPlite, 72 hours), IC50 on cancer cell line panel
Conditions: Homo sapiens, ACHN, read-out: IC50 in cell proliferation assay, cell line ACHN
pIC50: −log10 of the molar value.
pIC50 of 5 or higher: fulfilled. Under 5: not fulfilled.

Problem: Test whether the molecule CO[C@]1(C(=O)N[C@@H](C)c2ccc(-n3cc(F)cn3)nc2)CC[C@H](c2nc(C)cc(Nc3cc(C)[nH]n3)n2)CC1 records pIC50 of 5 or higher.
Solution: fulfilled

Problem: # bool: pIC50 of CCc1nc(C(N)=O)c(Nc2ccc(N3CCC(N4CCN(C)CC4)CC3)c(OC)c2)nc1NC1CCOCC1 >= 5
Solution: fulfilled

Problem: Quick check: does Cn1cnc2c(F)c(Nc3ccc(Br)cc3Cl)c(C(=O)NOCCO)cc21 have pIC50 greater than or equal to 5?
Solution: not fulfilled

* * *

Would you mind telling me the reported inhibition at 1 µM of each entry?
Target: panel of 255 wild-type kinases (Homo sapiens)
Sequence (Q8N568 whole entry): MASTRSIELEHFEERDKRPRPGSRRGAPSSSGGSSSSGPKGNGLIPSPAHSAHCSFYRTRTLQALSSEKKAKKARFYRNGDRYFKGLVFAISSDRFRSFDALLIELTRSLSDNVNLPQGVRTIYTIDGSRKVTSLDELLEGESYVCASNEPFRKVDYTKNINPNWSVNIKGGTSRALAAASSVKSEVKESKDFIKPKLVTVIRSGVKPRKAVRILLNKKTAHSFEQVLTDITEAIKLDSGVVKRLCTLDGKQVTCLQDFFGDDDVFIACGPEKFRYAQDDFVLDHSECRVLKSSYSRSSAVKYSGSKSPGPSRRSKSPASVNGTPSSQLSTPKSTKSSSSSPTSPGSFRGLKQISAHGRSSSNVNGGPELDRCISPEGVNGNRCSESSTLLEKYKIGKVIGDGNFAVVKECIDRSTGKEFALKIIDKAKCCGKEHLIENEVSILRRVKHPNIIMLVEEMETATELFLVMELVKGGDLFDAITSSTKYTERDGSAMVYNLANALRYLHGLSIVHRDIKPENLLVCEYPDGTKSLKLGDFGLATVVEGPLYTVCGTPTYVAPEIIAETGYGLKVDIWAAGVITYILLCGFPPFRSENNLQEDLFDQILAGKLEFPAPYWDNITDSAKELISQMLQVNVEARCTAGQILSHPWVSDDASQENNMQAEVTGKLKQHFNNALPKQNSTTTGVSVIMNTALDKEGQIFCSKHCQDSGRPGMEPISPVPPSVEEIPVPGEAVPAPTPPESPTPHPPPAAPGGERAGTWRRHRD
Test: Kinase panel profiling at 1 µmol/L (MSA or IMAP), percentage inhibition
Format: biochemical
Conditions: kinase DCAMKL2; 1 µmol/L single concentration; read-out: %-inhibition at 1 µmol/L, DCAMKL2
Report the figure in % without appending any unit label.

Problem: Report inhibition at 1 µM, nothing else, for this compound: Cc1cc(Nc2ncnc3ccc(NC4=NC(C)(C)CO4)cc23)ccc1Oc1ccn2ncnc2c1 [tucatinib]
Solution: 3.59

Problem: Report measured inhibition at 1 µM; entry is Cn1cc(-c2cc3c(N4CCN(c5ncc([C@@](C)(N)c6ccc(F)cc6)cn5)CC4)ncnn3c2)cn1 [avapritinib]
Solution: 3.65

Problem: Quote inhibition at 1 µM reported for CCN1CCN(c2ccc(Nc3cc(N(C)C(=O)Nc4c(Cl)c(OC)cc(OC)c4Cl)ncn3)cc2)CC1 [infigratinib] please.
Solution: 4.25

Problem: Please look at this compound and report its inhibition at 1 µM: COc1cc2ncnc(Nc3ccc(F)c(Cl)c3)c2cc1NC(=O)/C=C/CN1CCCCC1 [dacomitinib]
Solution: 1.42
